Molecular target: T1, human OPGbp [143-317] (human, UniProt O14788 143-317)
T1 construct: also called OPGL
T1 sequence (looked up): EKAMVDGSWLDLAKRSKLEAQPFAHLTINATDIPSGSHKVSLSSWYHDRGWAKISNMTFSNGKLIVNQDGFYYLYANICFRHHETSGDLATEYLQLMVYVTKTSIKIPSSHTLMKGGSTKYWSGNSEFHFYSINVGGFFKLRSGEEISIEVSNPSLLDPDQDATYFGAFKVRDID
Experiment: SPR (BIAcore), immobilized OPGbp [143-317]
quantity.measured: Kd (nM)
All answers are understood in nM, so give the number only.

Please review the following examples before continuing.
binder	numeric.readout
“AT” antibody variant S96A (heavy chain CDR3) (antibody, name in Kabat numbering, V domains shown, not shown: human IgG1 CH1, hinge, CH2 and CH3) VH: QVQLVQSGAEVRKPGASVKVSCKASGYDFSNYAIHWVRQAPGQRLEWMGWINAGNGNTKFSQKFQGRITVTRDTAASTAYMELRSLRSEDTAVYYCARDASNMVRGIIIAYYFDYWGQGTLVTVSS VL: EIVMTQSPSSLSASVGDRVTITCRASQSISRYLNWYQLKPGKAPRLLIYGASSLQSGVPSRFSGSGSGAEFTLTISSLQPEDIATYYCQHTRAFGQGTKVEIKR	2.5
“AT” antibody variant N98A (heavy chain CDR3) (antibody, name in Kabat numbering, V domains shown, not shown: human IgG1 CH1, hinge, CH2 and CH3) VH: QVQLVQSGAEVRKPGASVKVSCKASGYDFSNYAIHWVRQAPGQRLEWMGWINAGNGNTKFSQKFQGRITVTRDTAASTAYMELRSLRSEDTAVYYCARDSSAMVRGIIIAYYFDYWGQGTLVTVSS VL: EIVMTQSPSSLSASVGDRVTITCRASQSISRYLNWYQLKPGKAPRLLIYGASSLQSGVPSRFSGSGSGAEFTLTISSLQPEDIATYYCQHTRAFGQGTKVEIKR	0.67
“AT” antibody (full-length human IgG1) (antibody, V domains shown, Expressed in CHO cells; also called “AT” Ab; not shown: human IgG1 CH1, hinge, CH2 and CH3) VH: QVQLVQSGAEVRKPGASVKVSCKASGYDFSNYAIHWVRQAPGQRLEWMGWINAGNGNTKFSQKFQGRITVTRDTAASTAYMELRSLRSEDTAVYYCARDSSNMVRGIIIAYYFDYWGQGTLVTVSS VL: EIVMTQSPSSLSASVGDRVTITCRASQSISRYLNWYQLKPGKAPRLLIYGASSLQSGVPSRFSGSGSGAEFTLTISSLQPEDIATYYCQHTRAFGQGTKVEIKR	1.18

Moving on to the next binder.
*Q* Answer with reported Kd of “AT” antibody variant S97A (heavy chain CDR3) (antibody, name in Kabat numbering, V domains shown, not shown: human IgG1 CH1, hinge, CH2 and CH3) VH: QVQLVQSGAEVRKPGASVKVSCKASGYDFSNYAIHWVRQAPGQRLEWMGWINAGNGNTKFSQKFQGRITVTRDTAASTAYMELRSLRSEDTAVYYCARDSANMVRGIIIAYYFDYWGQGTLVTVSS VL: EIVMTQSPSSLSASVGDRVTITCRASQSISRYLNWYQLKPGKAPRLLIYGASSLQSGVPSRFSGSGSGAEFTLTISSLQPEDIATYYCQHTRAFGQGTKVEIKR
*A* 2.9
